Data origin, for the record: patent US8258257B2

TARGET UNDER TEST: GST-Cldn4.Ecl2 (R4) (Mus musculus, UniProt O35054)
Format: binding
MEASUREMENT CONTEXT: read-out: calculated equilibrium affinity (KD)
Where no end group is shown, it is not given here.
READOUT TYPE: Kd

SEQUENCE DATA	READOUT TYPE	REPORTED VALUE
NSSYSGNYPYSILFQKF [Cpe17, NSSYSGNYPYSILFQKF]	Kd	1.57 nM
SLDAGQYVLVMKANSSYSGNYPYSILFQKF [Cpe30]	Kd	2.56 nM
